So I've got a bunch of compounds here, and I need their Fold Synergistic (1a-QE) values.
# System: genotype-1a variant with glutamine 30 changed to glutamate in the NS5A protein
# run description: HCV replicon cell-based assay, NS5A synergy with BMS-790052
# condition context: genotype 1a Q→E variant; test compound titrated in combination with NS5A-targeting compound (BMS-790052 fixed at 200 nM)

Observe how each entry below is paired with its result.
record smiles: CC(C)CNC(=O)C[C@@H](CCC(F)(F)F)c1ncc(-c2ccc(-c3ccc(-c4cnc([C@H](CCC(F)(F)F)CC(=O)O)[nH]4)cc3)cc2)[nH]1
tested system: genotype-1a variant with glutamine 30 changed to glutamate in the NS5A protein
Fold Synergistic (1a-QE): <10 Fold
--
record smiles: CC(C)[C@H](CC(=O)N(CCN1CCOC1=O)CC(C)(C)C)c1ncc(-c2ccc(-c3ccc(-c4cnc([C@@H](CC(=O)N(CCN5CCOC5=O)CC(C)(C)C)C(C)C)[nH]4)cc3)cc2)[nH]1
tested system: genotype-1a variant with glutamine 30 changed to glutamate in the NS5A protein
Fold Synergistic (1a-QE): >10 Fold
--
record smiles: CC1(C)O[C@@H](C(N)=O)[C@H](c2ncc(-c3ccc(-c4ccc(-c5cnc([C@@H]6OC(C)(C)O[C@H]6C(N)=O)[nH]5)cc4)cc3)[nH]2)O1
tested system: genotype-1a variant with glutamine 30 changed to glutamate in the NS5A protein
Fold Synergistic (1a-QE): <10 Fold
--
record smiles: CC(C)CNC(=O)C[C@@H](C)c1nc(-c2ccc(-c3ccc(-c4c[nH]c([C@H](C)CC(=O)NCC(C)C)n4)cc3)cc2)c[nH]1
tested system: genotype-1a variant with glutamine 30 changed to glutamate in the NS5A protein
Fold Synergistic (1a-QE): >100 Fold
--
record smiles: COC(=O)NN(C(=O)C[C@@H](C)c1nc(-c2ccc(-c3ccc(-c4c[nH]c([C@H](C)CC(=O)N(NC(=O)OC)C(C)C)n4)cc3)cc2)c[nH]1)C(C)C
tested system: genotype-1a variant with glutamine 30 changed to glutamate in the NS5A protein
Fold Synergistic (1a-QE): >10 Fold

Report Fold Synergistic (1a-QE) for each item below.
1. CC(C)(C)CNC(=O)C[C@@H](CCC(F)(F)F)c1ncc(-c2ccc(-c3ccc(-c4cnc([C@H](CCC(F)(F)F)CC(=O)NCC(C)(C)C)[nH]4)cc3)cc2)[nH]1
2. CCN(CC)C(=O)CN(C)C(=O)C[C@H](c1ncc(-c2ccc(-c3ccc(-c4cnc([C@@H](CC(=O)N(C)CC(=O)N(CC)CC)C(C)C)[nH]4)cc3)cc2)[nH]1)C(C)C
3. O=C(C[C@@H](CCC(F)(F)F)c1ncc(-c2ccc(-c3ccc(-c4cnc([C@H](CCC(F)(F)F)CC(=O)NC5CCOCC5)[nH]4)cc3)cc2)[nH]1)NC1CCOCC1

Response:
["<10 Fold", ">10 Fold", "<10 Fold"]
